Study system: human plasma kallikrein (Homo sapiens, UniProt P03952)
Sequence (P03952 391-638 limits assumed): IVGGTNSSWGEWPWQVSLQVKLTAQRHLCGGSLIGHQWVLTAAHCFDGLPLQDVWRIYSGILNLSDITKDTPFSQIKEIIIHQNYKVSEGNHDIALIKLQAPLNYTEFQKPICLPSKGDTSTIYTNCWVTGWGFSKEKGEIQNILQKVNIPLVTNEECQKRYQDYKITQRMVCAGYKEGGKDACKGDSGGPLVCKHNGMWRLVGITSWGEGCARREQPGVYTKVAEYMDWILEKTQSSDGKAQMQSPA
Sequence (P03952 20-390 partner limits assumed): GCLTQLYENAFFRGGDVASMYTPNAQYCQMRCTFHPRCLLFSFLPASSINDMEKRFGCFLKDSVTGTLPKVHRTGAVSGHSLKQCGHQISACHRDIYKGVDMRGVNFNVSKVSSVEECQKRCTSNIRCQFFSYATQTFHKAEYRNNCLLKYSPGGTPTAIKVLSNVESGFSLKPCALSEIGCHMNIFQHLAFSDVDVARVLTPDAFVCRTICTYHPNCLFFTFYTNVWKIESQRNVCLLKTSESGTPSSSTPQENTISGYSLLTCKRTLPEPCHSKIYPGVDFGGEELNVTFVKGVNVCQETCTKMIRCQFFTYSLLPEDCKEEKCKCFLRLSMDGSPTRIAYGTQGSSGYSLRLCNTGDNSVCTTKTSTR
Measurement protocol: Determination of the plasma kallikrein activity (fluorogenic peptide substrate, AMC cleavage)
Conditions used: plasma kallikrein from Kordia 0.6 nM; substrate H-Pro-Phe-Arg-AMC 10 μM; 30 min at 22° C.; in some cases averages from multiple determinations
Can you tell me IC50 for the items I'm about to list?
State just the number; it will be interpreted in nM.

Challenge: Returns the measured IC50 for the input molecule. Input: CCCC(C(=O)Nc1ccc(C(=O)O)cc1)n1cc(OC)c(-c2cc(Cl)ccc2OCC(F)(F)F)cc1=O (racemic)
Response given: 140

Challenge: Another molecule: COc1cc(NC(=O)C(CCOC(C)(C)C)n2cc(OC)c(-c3cc(Cl)ccc3OCC(F)(F)F)cc2=O)ccc1C(=O)O (racemic)
Response given: 210

Challenge: Next molecule up: COc1cn(C(CCOC(C)(C)C)C(=O)Nc2ccc(C(=O)O)cc2)c(=O)cc1-c1cc(Cl)ccc1OCC(F)(F)F (single isomer, unassigned) [Example 8]
Response given: 19

Challenge: Cool, now COc1cn(C(CCOC2(C)CCC2)C(=O)Nc2ccc(C(=O)O)cc2)c(=O)cc1-c1cc(Cl)ccc1OCC(F)(F)F (racemic)
Response given: 32

Challenge: CNC(=O)c1ccc(NC(=O)C(C[C@@H]2CCCCO2)n2cc(OC)c(-c3cc(Cl)ccc3OCC(F)(F)F)cc2=O)cn1 (stereo partly drawn) , same question.
Response given: 82

Challenge: What do we get for CCNC(=O)c1ccc(NC(=O)C(CCOC2(C)CCC2)n2cc(OC)c(-c3cc(Cl)ccc3OCC(F)(F)F)cc2=O)cn1 (racemic) ?
Response given: 150

====

The following are reported IC50 results, target or system human factor XIa (Homo sapiens, UniProt P03951).
Give just the numeric value; nM need not be written.

Challenge: // IC50 lookup, key: CNC(=O)c1ccc(NC(=O)C(CCOC2(C)CCC2)n2cc(OC)c(-c3cc(Cl)ccc3OCC(F)(F)F)cc2=O)cn1 (racemic)
Response given: 14

Challenge: Would you mind doing CCCC(C(=O)Nc1ccc(C(=O)O)cc1)n1cc(OC)c(-c2cc(Cl)ccc2OCC(F)(F)F)cc1=O (racemic) as well?
Response given: 2.8

Challenge: Also, CNC(=O)c1ccc(NC(=O)C(CC2COCCO2)n2cc(OC)c(-c3cc(Cl)ccc3OCC(F)F)cc2=O)cn1 (centres unmarked) please.
Response given: 7.1

Challenge: Now the compound COc1cn(C(C[C@@H]2CCCCO2)C(=O)Nc2ccc(C(N)=O)nc2)c(=O)cc1-c1cc(Cl)ccc1OCC(F)(F)F (some centres unmarked)
Response given: 3

Challenge: # iterate: COc1cn(C(C[C@@H]2CCCCO2)C(=O)Nc2ccc(C(=O)O)cc2)c(=O)cc1-c1cc(Cl)ccc1OCC(F)(F)F (some centres unmarked)
Response given: 0.9

Challenge: Try COc1cn(C(CC2COCCO2)C(=O)Nc2ccc(C(=O)O)cc2)c(=O)cc1-c1cc(Cl)ccc1OCC(F)(F)F (centres unmarked) next.
Response given: 0.82

Challenge: Entry COc1cn(C(C[C@H]2CCCCO2)C(=O)Nc2ccc(C(=O)O)cc2)c(=O)cc1-c1cc(Cl)ccc1OCC(F)(F)F (some centres unmarked) please
Response given: 2.5

Challenge: Next compound: CNC(=O)c1ccc(NC(=O)C(CC2COCCO2)n2cc(OC)c(-c3cc(Cl)ccc3OCC(F)(F)F)cc2=O)cn1 (centres unmarked) [Example 19]
Response given: 3.4

Challenge: Entry to check: CNC(=O)c1ccc(NC(=O)C(CC2COCCO2)n2cc(OC)c(-c3cc(Cl)ccc3OCC(F)(F)F)cc2=O)cn1 (single isomer, unassigned) [Example 63]
Response given: 1.3

Challenge: Similarly, COc1cn(C(CCOC(C)(C)C)C(=O)Nc2ccc(C(N)=O)c(F)c2)c(=O)cc1-c1cc(Cl)ccc1OCC(F)F (racemic) ?
Response given: 25

Challenge: Consider next the compound COc1cn(C(CCOC(C)(C)C)C(=O)Nc2ccc3nn(C)cc3c2)c(=O)cc1-c1cc(Cl)ccc1OCC(F)F (racemic) in the same way.
Response given: 28

Challenge: Thanks! And COc1cn(C(C[C@H]2CCCCO2)C(=O)Nc2ccc(C(N)=O)c(F)c2)c(=O)cc1-c1cc(Cl)ccc1OCC(F)(F)F (some centres unmarked) ?
Response given: 34

Challenge: What about COc1cn(C(C[C@H](C)OC)C(=O)Nc2ccc(C(=O)O)cc2)c(=O)cc1-c1cc(Cl)ccc1OCC(F)(F)F (mixture of isomers) ?
Response given: 2.4

Challenge: Next up: COc1cn(C(CCOC(C)(C)C)C(=O)Nc2ccc(C(N)=O)c(F)c2)c(=O)cc1-c1cc(Cl)ccc1OCC(F)(F)F (racemic)
Response given: 15

Challenge: Another compound: COc1cn(C(C[C@@H]2CCCCO2)C(=O)Nc2ccc3nn(C)cc3c2)c(=O)cc1-c1cc(Cl)ccc1OCC(F)(F)F (some centres unmarked)
Response given: 6

Challenge: Next record, please: COc1cc(NC(=O)C(CCOC(C)(C)C)n2cc(OC)c(-c3cc(Cl)ccc3OCC(F)(F)F)cc2=O)ccc1C(=O)O (racemic)
Response given: 6.9

Challenge: CNC(=O)c1ccc(NC(=O)C(CCOC)n2cc(OC)c(-c3cc(Cl)ccc3OCC(F)(F)F)cc2=O)cn1 (racemic) , same question.
Response given: 6.5

Challenge: Request: COc1cn(C(Cc2ccn(C)n2)C(=O)Nc2ccc(C(=O)O)cc2)c(=O)cc1-c1cc(Cl)ccc1OCC(F)(F)F (racemic)
Response given: 1.3

Challenge: Repeat with COc1cn(C(CC2COCCO2)C(=O)Nc2ccc3nn(C)cc3c2)c(=O)cc1-c1cc(Cl)ccc1OCCF (centres unmarked)
Response given: 15

Challenge: Could you do the same for CNC(=O)c1ccc(NC(=O)C(C[C@H]2CCCCO2)n2cc(OC)c(-c3cc(Cl)ccc3OCC(F)(F)F)cc2=O)cn1 (some centres unmarked) , please?
Response given: 18

Challenge: # repeat for COc1cn(C(C[C@H](C)OC)C(=O)Nc2ccc3nn(C)cc3c2)c(=O)cc1-c1cc(Cl)ccc1OCC(F)(F)F (mixture of isomers)
Response given: 7.9

Challenge: Next up: COc1cn(C(C[C@H](C)OC)C(=O)Nc2ccc(C(N)=O)nc2)c(=O)cc1-c1cc(Cl)ccc1OCC(F)(F)F (some centres unmarked)
Response given: 7.1

Challenge: Here is the next compound: CNC(=O)c1ccc(NC(=O)C(CCOC(C)(C)C)n2cc(OC)c(-c3cc(Cl)ccc3OCC(F)(F)F)cc2=O)cn1 (racemic)
Response given: 12

Challenge: Check CCCC(C(=O)Nc1ccc2nn(C)cc2c1)n1cc(OC)c(-c2cc(Cl)ccc2OCC(F)(F)F)cc1=O (racemic) too.
Response given: 40

Challenge: Please give the result for COc1cn(C(CCOC2(C)CCC2)C(=O)Nc2ccc(C(N)=O)nc2)c(=O)cc1-c1cc(Cl)ccc1OCC(F)(F)F (racemic) too.
Response given: 17

Challenge: Note, next up: COc1cn(C(CCOC2(C)CCC2)C(=O)Nc2ccc(C(=O)O)cc2)c(=O)cc1-c1cc(Cl)ccc1OCC(F)(F)F (racemic)
Response given: 1.8

====

Study system: human plasma kallikrein (Homo sapiens)
Measurement protocol: Determination of the plasma kallikrein activity (fluorogenic peptide substrate, AMC cleavage)
Conditions used: plasma kallikrein from Kordia 0.6 nM; substrate H-Pro-Phe-Arg-AMC 10 μM; 30 min at 22° C.; in some cases averages from multiple determinations
Assign IC50 to each entry below.
# number only, unit µM dropped from output

Challenge: Item under review: COc1cn(C(C[C@H](C)OC)C(=O)Nc2ccc(C(N)=O)c(F)c2)c(=O)cc1-c1cc(Cl)ccc1OCC(F)(F)F (mixture of isomers) . Reported IC50?
Response given: 0.23

Challenge: Another: COc1cn([C@@H](CCOC(C)(C)C)C(=O)Nc2ccc3nc(C(=O)O)cn3c2)c(=O)cc1-c1cc(Cl)ccc1OCC(F)(F)F (single isomer, unassigned)
Response given: 0.01

Challenge: Similarly, COc1cn(C(CCOC(C)(C)C)C(=O)Nc2ccc(C(N)=O)c(F)c2)c(=O)cc1-c1cc(Cl)ccc1OCC(F)F (racemic) ?
Response given: 0.15

Challenge: Another compound: CNC(=O)c1ccc(NC(=O)C(CC2COCCO2)n2cc(OC)c(-c3cc(Cl)ccc3OCC(F)(F)F)cc2=O)cn1 (single isomer, unassigned) [Example 63]
Response given: 0.014

Challenge: Follow-up entry: COc1cn(C(C[C@H](C)OC)C(=O)Nc2ccc(C(=O)O)cc2)c(=O)cc1-c1cc(Cl)ccc1OCC(F)(F)F (mixture of isomers)
Response given: 0.13

Challenge: Field entry: CNC(=O)c1ccc(NC(=O)C(CCOC)n2cc(OC)c(-c3cc(Cl)ccc3OCC(F)(F)F)cc2=O)cn1 (racemic)
Response given: 0.049

Challenge: Try the compound CNC(=O)c1ccc(NC(=O)C(CCOC2(C)CCC2)n2cc(OC)c(-c3cc(Cl)ccc3OCC(F)(F)F)cc2=O)cn1 (racemic)
Response given: 0.054

Challenge: Param item: COCCC(C(=O)Nc1ccc2nn(C)cc2c1)n1cc(OC)c(-c2cc(Cl)ccc2OCC(F)(F)F)cc1=O (racemic)
Response given: 0.033

Challenge: Another compound to check: COc1cn(C(CC2COCCO2)C(=O)Nc2ccc(C(=O)O)cc2)c(=O)cc1-c1cc(Cl)ccc1OCCF (stereo not shown)
Response given: 0.32

Challenge: Same lookup for COc1cn(C(CC2COCCO2)C(=O)Nc2ccc(C(N)=O)nc2)c(=O)cc1-c1cc(Cl)ccc1OCC(F)F (stereo not shown) , please.
Response given: 0.074

Challenge: Same thing, different compound: COc1cc(NC(=O)[C@H](CCOC(C)(C)C)n2cc(OC)c(-c3cc(Cl)ccc3OCC(F)(F)F)cc2=O)ccc1C(=O)O (single isomer, unassigned)
Response given: 0.058

Challenge: Please answer likewise for COc1cn(C(CC2COCCO2)C(=O)Nc2ccc3nn(C)cc3c2)c(=O)cc1-c1cc(Cl)ccc1OCCF (stereo not shown)
Response given: 0.15

Challenge: What do you have for COc1cn(C(C[C@@H]2CCCCO2)C(=O)Nc2ccc3nc(C(=O)O)cn3c2)c(=O)cc1-c1cc(Cl)ccc1OCC(F)(F)F (stereo partly shown) ?
Response given: 0.023
